biological target: UniProt:Q9Y297; assay: Fluorescence polarisation (FP) binding assay with fluorescein-tagged IκB peptide; conditions: Table 11, with spread; read-out: FP IC50/μM
Sequence (Q9Y297 whole entry): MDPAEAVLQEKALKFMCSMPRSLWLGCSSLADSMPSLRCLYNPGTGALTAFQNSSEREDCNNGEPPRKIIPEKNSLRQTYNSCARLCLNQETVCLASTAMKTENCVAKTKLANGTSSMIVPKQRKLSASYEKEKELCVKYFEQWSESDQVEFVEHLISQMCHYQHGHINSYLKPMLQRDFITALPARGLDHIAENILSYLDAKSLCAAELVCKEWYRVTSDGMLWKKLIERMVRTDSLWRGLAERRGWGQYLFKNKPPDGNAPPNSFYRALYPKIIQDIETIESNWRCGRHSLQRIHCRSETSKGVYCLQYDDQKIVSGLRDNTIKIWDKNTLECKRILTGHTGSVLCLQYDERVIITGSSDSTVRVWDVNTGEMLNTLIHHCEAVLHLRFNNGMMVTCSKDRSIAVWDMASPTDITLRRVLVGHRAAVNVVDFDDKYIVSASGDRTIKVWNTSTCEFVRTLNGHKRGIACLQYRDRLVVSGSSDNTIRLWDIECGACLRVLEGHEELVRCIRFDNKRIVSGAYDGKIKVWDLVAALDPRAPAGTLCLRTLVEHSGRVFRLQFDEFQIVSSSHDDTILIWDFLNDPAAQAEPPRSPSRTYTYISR
Sequence (P63208 whole entry partner): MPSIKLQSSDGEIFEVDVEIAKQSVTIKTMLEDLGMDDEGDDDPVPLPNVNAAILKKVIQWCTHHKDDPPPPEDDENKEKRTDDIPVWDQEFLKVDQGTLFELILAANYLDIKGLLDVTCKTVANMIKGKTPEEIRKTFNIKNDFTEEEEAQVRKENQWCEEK
Starred links: 1 amine or outer side, 2 acyl side, 3 side chain; linkers in the order of their positions; H or OH if unused. Non-standard residues stand in square brackets, D forms with d. Residues, ends and D or L forms follow the SMILES beside them. *: point of attachment. Phe(4-NO2) = N[C@@H](Cc1ccc([N+](=O)[O-])cc1)C(=O)O; Phe(3-Cl) = N[C@@H](Cc1cccc(Cl)c1)C(=O)O; Phe(3-F) = N[C@@H](Cc1cccc(F)c1)C(=O)O; Suc = O=C(CCC(=O)[*:2])[*:1]; Tos = Cc1ccc(S(=O)(=O)*)cc1; Ethoxycarbonyl = CCOC(=O)*
observedProperty: IC50 (µM)
One number for each entry, in µM.

molecule	measureUnit	measuredResult
Cc1ccc(S(=O)(=O)N[C@H](CC(=O)O)C(=O)N[C@@H](CCC(=O)O)C(=O)NCC(=O)N[C@@H](Cc2cccc(Cl)c2)C(=O)N[C@@H](Cc2c[nH]c3ccccc23)C(=O)N[C@@H](CCC(=O)O)C(N)=O)cc1 [UBP034, Ts-dEGF(3Cl)WE-NH2] (Tos-[dD]EG[Phe(3-Cl)]WE-NH2)	µM	0.01
NC(=O)[C@H](CCC(=O)O)NC(=O)[C@H](Cc1ccc([N+](=O)[O-])cc1)NC(=O)[C@H](Cc1ccc(O)cc1)NC(=O)CNC(=O)[C@H](CCC(=O)O)NC(=O)CCC(=O)O [UBP013, Suc-EGYF(4NO2)E-NH2] (Suc-EGY[Phe(4-NO2)]E-NH2)	µM	2.07
Cc1ccc(S(=O)(=O)N[C@H](CC(=O)O)C(=O)N[C@@H](CCC(=O)O)C(=O)NCC(=O)N[C@@H](Cc2cccc(F)c2)C(=O)N[C@@H](Cc2c[nH]c3ccccc23)C(=O)N[C@@H](CC(=O)O)C(N)=O)cc1 [UBP027, Ts-dEGF(3F)WD-NH2] (Tos-[dD]EG[Phe(3-F)]WD-NH2)	µM	0.034

# input for lookup
Field IC50 (UniProt:Q9Y297), entry CCOC(=O)N[C@H](CC(=O)O)C(=O)N[C@@H](CCC(=O)O)C(=O)NCC(=O)N[C@@H](Cc1cccc(F)c1)C(=O)N[C@@H](Cc1c[nH]c2ccccc12)C(=O)N[C@@H](CCC(=O)O)C(N)=O [UBP023, EtO(CO)-dEGF(3F)WE-NH2] (Ethoxycarbonyl-[dD]EG[Phe(3-F)]WE-NH2) : 0.045
